target-under-test: human orexin-2 receptor (Homo sapiens (Human))
Sequence (O43614 whole entry): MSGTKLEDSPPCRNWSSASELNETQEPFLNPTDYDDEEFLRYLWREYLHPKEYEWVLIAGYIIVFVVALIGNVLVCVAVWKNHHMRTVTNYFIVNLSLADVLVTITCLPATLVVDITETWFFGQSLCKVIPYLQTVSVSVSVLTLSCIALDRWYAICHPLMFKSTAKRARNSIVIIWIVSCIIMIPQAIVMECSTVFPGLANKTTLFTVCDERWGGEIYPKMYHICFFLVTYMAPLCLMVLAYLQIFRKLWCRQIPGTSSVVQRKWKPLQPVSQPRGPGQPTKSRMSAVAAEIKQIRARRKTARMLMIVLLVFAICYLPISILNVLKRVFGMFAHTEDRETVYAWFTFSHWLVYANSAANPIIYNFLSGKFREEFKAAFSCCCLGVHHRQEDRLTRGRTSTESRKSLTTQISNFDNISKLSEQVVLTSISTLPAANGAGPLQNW
experimental-protocol: In vitro assay: intracellular calcium measurements (FLIPR), antagonistic activity
Assay type: cell-based
run-conditions: CHO cells, 3 nM orexin-A, compound incubation 120 min; marked values are geometric means of n = 2-6; read-out: IC50 OX2
Procedure: In Vitro Assay: Intracellular Calcium Measurements: […] Fluorescence is measured for each well at 1 second intervals, and the height of each fluorescence peak is compared to the height of the fluorescence peak induced by 3 nM orexin-A with vehicle in place of antagonist. […] The calculated IC50 values may fluctuate depending on the daily cellular assay performance. […]
Items are presented alongside their recorded IC50.
Answer with a number only, understood to be in nM.

# lookup: IC50 of COc1cccc(OC)c1C1CCCC(=O)N1Cc1ccc2ncccc2c1 (stereo not drawn) 1000

# lookup: IC50 of COc1cccc(OC)c1C1CC(C)C(=O)N1Cc1ccc2ccccc2n1 (stereo not drawn) 474

# lookup: IC50 of COc1cccc(F)c1C1CC(F)(F)C(=O)N1Cc1ccc2oc3ccccc3c2c1 (stereo not drawn) 12

# lookup: IC50 of COc1cncc(OC)c1C1CCCC(=O)N1Cc1cccc(-c2ccccn2)c1 (stereo not drawn) 90

# lookup: IC50 of COc1cccc(OC)c1C1CCCC(=O)N1Cc1cc(-c2ccccc2)ccn1 (stereo not drawn) 131

# lookup: IC50 of COc1cccc(OC)c1C1CCC(=O)N1Cc1cccc(-c2cccnc2)c1 (stereo not drawn) 249

# lookup: IC50 of COc1ccc(F)c(OC)c1[C@@H]1C[C@H](F)C(=O)N1Cc1ccc(OC(F)(F)F)cc1 (racemic) 296

# lookup: IC50 of COc1ccc(CN2C(=O)C(C)CC2c2c(OC)cccc2OC)cc1OC(F)(F)F (stereo not drawn) 513

# lookup: IC50 of COc1cccc(OC)c1[C@@H]1C[C@H](Cl)C(=O)N1Cc1ccc2oc3ccccc3c2c1 (racemic) 5
